- PROTOCOL_TEXT: small-molecule microarray binders of probe aNog, primary screen, biochemical, biotinylated probe, 635/667 nm fluorescence (AID 1115);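 further: probe is biotinylated aNog protein used at 0.15 µg/mL for 1 h at 4 C; z-score combines 667 nm fluorescence of each spot with its signal to noise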
- CONDITION_SET: higher = more signal
Each record's class is read off its composite z-score using these ranges: lower segment (below -0.2), middle segment (-0.2 to below -0.04), upper segment (-0.04 or more)

Field: example entries. Status: answers known.
Form field 'band' for C#CCCCON=C1C[C@@H](O)[C@@H](O)[C@@H]2[C@@H]3C(=O)N([C@@H](C)c4ccccc4)C(=O)[C@@H]3CC[C@H]12
lower segment

Form field 'band' for CCOC(=O)NN=C1C[C@@H](O)[C@@H](O)[C@@H]2[C@@H]3C(=O)N(C4CCCCC4)C(=O)[C@@H]3CC[C@@H]12
middle segment

Form field 'band' for CCOC(=O)CCN1C(=O)[C@H]2[C@H]3[C@H](O)[C@H](O)CC(=NOCc4ccccc4)[C@@H]3CC[C@H]2C1=O
upper segment

Form field 'band' for O=C1O[C@@H](c2ccccc2)[C@@H](c2ccccc2)N2[C@@H](c3ccc(OCCO)cc3)[C@]3(C(=O)Nc4ccccc43)[C@@H](C(=O)N3CCN(c4ncccn4)CC3)[C@H]12
upper segment

Form field 'band' for CCc1cc2c(nc1CC)CCN(CCC(C)=NOC[C@@H](O)[C@H]1O[C@@H]3OC(C)(C)O[C@@H]3[C@H]1O)C2
lower segment

Form field 'band' for CCc1cc2c(nc1CC)CCN(CCC(C)=NOC[C@@H](O)COCc1ccco1)C2
middle segment

Form field 'band' for Cc1cc2c(nc1C)CCCN2CC(C)ON=C1[C@H]2CCn3c(=O)n(-c4ccccc4)c(=O)n3[C@H]2[C@H](O)[C@@H]2O[C@H]12 (some centres undefined)
upper segment

Form field 'band' for O=C1C[C@@H](O)[C@@H](O)[C@@H]2[C@@H]3C(=O)N(c4cccc(Oc5ccccc5)c4)C(=O)[C@@H]3CC[C@@H]12
lower segment

More entries:
Form field 'band' for CCOC(=O)CCN1C(=O)[C@H]2[C@H]3[C@H](O)C=CC(=O)[C@@H]3CC[C@H]2C1=O
middle segment

Form field 'band' for O=C1[C@H]2[C@H]3[C@H](O)[C@H](O)CC(=NOC[C@@H](O)COCc4ccco4)[C@H]3CC[C@H]2C(=O)N1Cc1ccc2c(c1)OCO2
lower segment

Form field 'band' for C=COC[C@H]1CN2[C@@H](CC[C@@H](C)[C@@H]2c2ccc(Br)cc2)C(=O)O1
upper segment

###

- PROTOCOL_TEXT: CREB reporter modulators under forskolin, primary screen, cell-based, PC12, CRE-LacZ reporter, forskolin-stimulated (AID 1146);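 further: PC12 cells with 6xCRE LacZ reporter stimulated by forskolin 10 µM; beta-galactosidase reporter signal reflecting CREB driven transcription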
- CONDITION_SET: luminescence, 4.5 h, higher = more signal, called active from +8 up or from −8 down
Listed here: items and their measured z-score.
In your answer, state the number alone without any accompanying words.

Take a look at these entries with their results.
Query (molecule): COC(=O)[C@@]1(Cc2ccc(F)cc2)[C@H]2c3cc(C(=O)N(C)C)n(Cc4ccc(OC)c(OC)c4)c3C[C@H]2CN1C(=O)c1ccccc1 ; field requested: z-score
0.426

Query (molecule): c1ccc(C2NCCc3c2[nH]c2ccccc32)cc1 (stereo not drawn) ; field requested: z-score
-1.11

More entries:
Query (molecule): CC(C)NC(=O)[C@@]1(C)c2ccccc2C(=O)N(Cc2cc(F)cc(C(F)(F)F)c2)[C@H]1c1ccc(CO)cc1 ; field requested: z-score
-0.237

###

- Test system: Plasmodium falciparum Sir2 (PF13_0152, Sir2A)
- PROTOCOL_TEXT: pfSir2 binders on small-molecule microarrays, primary screen, biochemical, small-molecule microarray, 635 nm fluorescence (AID 1098);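 further: score merges spot fluorescence intensity with its signal-to-noise ratio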
- CONDITION_SET: small-molecule microarray binding, fluorescence 635 nm; higher = more signal
MEASUREMENT_LABEL: composite z-score
In your answer, state the number alone without any accompanying words.

Take a look at these entries with their results.
Request body: readout composite z-score, system Plasmodium falciparum Sir2 (PF13_0152, Sir2A), query CC(C)=CCCC(C)=CCON=C1[C@H]2CCn3c(=O)n(Cc4cc5c(cc4Cl)OCO5)c(=O)n3[C@H]2[C@H](O)[C@@H]2O[C@H]12 . Return the value.
0.398

Request body: readout composite z-score, system Plasmodium falciparum Sir2 (PF13_0152, Sir2A), query CO[C@H]1COC(=O)[C@@H]2CCCN2C(=O)CC=C[C@@H](C)[C@H](OC)COC(=O)CC=C[C@@H]1C . Return the value.
0.401

Now turn to the next compound.
Request body: readout composite z-score, system Plasmodium falciparum Sir2 (PF13_0152, Sir2A), query Cc1cc2c(c(=O)o1)[C@H](O)[C@H]1O[C@H]1C2=O . Return the value.
0.412

###

- PROTOCOL_TEXT: osmotic lysis modulators in infected erythrocytes, primary screen, PSAC antagonist project, cell-based, P. falciparum Indochina, OD700, 3 h (AID 1156)
- CONDITION_SET: higher = more signal, called active from +8 up or from −8 down
MEASUREMENT_LABEL: z-score
In your answer, state the number alone without any accompanying words.

Take a look at these entries with their results.
Query (compound): CCc1cc2c(nc1CC)CCN(CCC(C)=NOC[C@@H](O)[C@H]1O[C@@H]3OC(C)(C)O[C@@H]3[C@H]1O)C2 ; field requested: z-score
0.0286

Query (compound): CCOC(=O)[C@H](CC(C)C)NC(=O)CCC1CC(OC(=O)NCc2cccc3ccccc23)CC2(CCCC(COC(=O)NCCc3ccccc3OC)O2)O1 (some centres undefined) ; field requested: z-score
-0.868

More entries:
Query (compound): CCc1cc2c(nc1CC)CCN(CCC(C)=NOC[C@@H](O)COCc1ccco1)C2 ; field requested: z-score
0.0761

Query (compound): CCOC(=O)[C@H](Cc1ccccc1)NC(=O)CCC1CC(OC(=O)NCc2ccc3c(c2)OCO3)CC2(CCCC(COC(=O)NCC3CCCCC3)O2)O1 (some centres undefined) ; field requested: z-score
-0.235

Query (compound): COC(=O)[C@@]1(Cc2ccc(F)cc2)[C@@H]2C(=CC(=O)[C@H]2CC(=O)C(=O)N(C)C)CN1C(=O)c1ccccc1 ; field requested: z-score
-0.25

Query (compound): COc1ccc(O[C@H]2C=C[C@@H](c3ccccc3)O[C@@H]2CON=C[C@@H](C)[C@H](OCc2ccccc2)C(C)C)cc1 ; field requested: z-score
0.422

Query (compound): COC(=O)[C@H](C)NC(=O)CCC1CC(OC(=O)NCCc2ccc(F)cc2)CC2(CCCC(COC(=O)NCCc3ccc(Cl)cc3)O2)O1 (some centres undefined) ; field requested: z-score
-0.0413

Query (compound): COC(=O)CC1OC1[C@H](C)[C@@H](OC)C(C)C (some centres undefined) ; field requested: z-score
-0.324

Query (compound): CO[C@H]1O[C@H](CO)[C@@H](OC(=O)Nc2ccc(C#N)cc2)[C@H](OC(=O)c2cc3ccccc3[nH]2)[C@H]1OC(=O)c1cc2ccccc2[nH]1 ; field requested: z-score
1.71

###

- SYSTEM_NAME: NADPH oxidase 2 (Homo sapiens) (UniProt P04839)
- Sequence (P04839 whole entry, looked up): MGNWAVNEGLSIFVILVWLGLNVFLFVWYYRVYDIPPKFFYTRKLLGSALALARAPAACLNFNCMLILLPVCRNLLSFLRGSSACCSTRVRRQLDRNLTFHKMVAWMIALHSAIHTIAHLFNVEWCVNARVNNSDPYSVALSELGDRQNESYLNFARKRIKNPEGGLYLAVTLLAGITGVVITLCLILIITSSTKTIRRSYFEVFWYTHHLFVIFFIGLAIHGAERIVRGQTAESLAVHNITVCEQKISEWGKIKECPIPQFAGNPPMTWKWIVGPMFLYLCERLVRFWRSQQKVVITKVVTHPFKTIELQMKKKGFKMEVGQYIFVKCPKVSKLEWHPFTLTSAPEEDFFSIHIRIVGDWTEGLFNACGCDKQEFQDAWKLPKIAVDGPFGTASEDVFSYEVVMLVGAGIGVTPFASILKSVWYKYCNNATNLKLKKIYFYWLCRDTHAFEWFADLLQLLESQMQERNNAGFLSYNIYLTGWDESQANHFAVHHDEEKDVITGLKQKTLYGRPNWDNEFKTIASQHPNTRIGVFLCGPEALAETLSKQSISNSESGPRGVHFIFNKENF
- PROTOCOL_TEXT: NOX2-dependent H2O2 signal modulators, primary screen, NOX inhibitor project, cell-based, HEK293-NOX2, PMA-stimulated, Amplex Red fluorescence (AID 1159); further: test concentration not given here
- CONDITION_SET: 45 min, higher = more signal, called active from +8 up or from −8 down
MEASUREMENT_LABEL: z-score
In your answer, state the number alone without any accompanying words.

Take a look at these entries with their results.
Request body: readout z-score, system NADPH oxidase 2 (Homo sapiens) (UniProt P04839), query [N-]=[N+]=NCc1ccccc1C[C@]1(C(=O)NCc2ccccc2)N=C(c2ccc(OCCCO)cc2)O[C@H]1c1ccccc1N=[N+]=[N-] . Return the value.
-0.349

Request body: readout z-score, system NADPH oxidase 2 (Homo sapiens) (UniProt P04839), query COC(=O)[C@H](C)NC(=O)CCC1CC(OC(=O)NCc2cccc3ccccc23)CC2(CCCC(COC(=O)NCC3CCCCC3)O2)O1 (stereo partly drawn) . Return the value.
0.17

Now turn to the next molecule.
Request body: readout z-score, system NADPH oxidase 2 (Homo sapiens) (UniProt P04839), query COC(=O)C1=CCC(c2cccc(Cl)c2)O1 (stereo not drawn) . Return the value.
-3.94

###

- PROTOCOL_TEXT: binders of probe aHhip on microarray, primary screen, stem cell growth factor project, biochemical, small-molecule microarray, fluorescence 635/667 (AID 1087);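 further: score merges spot fluorescence at 667nm with spot signal to noise ratio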
- CONDITION_SET: higher = more signal
MEASUREMENT_LABEL: composite z-score
In your answer, state the number alone without any accompanying words.

Take a look at these entries with their results.
Query (compound): CC(C)CON=C1C[C@@H](O)[C@@H](O)[C@@H]2[C@@H]3C(=O)N([C@@H](C)c4ccccc4)C(=O)[C@@H]3CC[C@H]12 ; field requested: composite z-score
0.21

Query (compound): CCOC(=O)C1=CCC(c2cc3ccccc3[nH]2)NC1 (stereo not drawn) ; field requested: composite z-score
-0.156

More entries:
Query (compound): COC(=O)C1=CCC(c2cccc(Cl)c2)O1 (stereo not drawn) ; field requested: composite z-score
0.0749

The measurements presented in this section are drawn from PubChem BioAssay.
